Tested on: Influenza A virus
assay_summary: Antiviral activity against Influenza A virus A/Puerto Rico/8/34 (H1N1) infected in MDCK cells assessed as inhibition of viral replication
Format: functional, organism-based
# T = IC50 below 20 µM (exclusive); F = IC50 at/above 20 µM

Exam item: Decide: IC50 of `Cc1noc([C@]23CC[C@H](CC2=O)C3(C)C)n1` strictly below 20 µM?
Marked response: F

Exam item: Field: below-cutoff. Rule: recorded IC50 strictly less than 20 µM. Subject: `CC(C)/C(N)=N/OC(=O)[C@]12CC[C@H](CC1=O)C2(C)C`
Marked response: F

Exam item: Say whether its IC50 is strictly beneath 20 µM. Entry: `CC1(C)[C@@H]2CC[C@@]1(c1nc(-c3cccnc3)no1)C(=O)C2`
Marked response: T

Exam item: In the record for CCC(CC)O[C@@H]1C=C(C(=O)O)C[C@H](N)[C@H]1NC(C)=O [OSELTAMIVIR CARBOXYLATE] , is IC50 less than 20 µM?
Marked response: T

Exam item: For this molecule, is IC50 lower than 20 µM? `CC1(C)[C@@H]2CC[C@@]1(c1nc(Cc3ccc(Br)cc3)no1)C(=O)C2`
Marked response: T

Exam item: Is it true that IC50 reported for `CC1(C)[C@@H]2CC[C@@]1(C(=O)O/N=C(\N)Cc1ccc(Cl)cc1)C(=O)C2` is less than 20 µM?
Marked response: T

Exam item: Record `CC1(C)[C@@H]2CC[C@@]1(c1nc(Cc3ccc(Cl)cc3)no1)C(=O)C2` : is its IC50 strictly below 20 µM?
Marked response: F

Exam item: Item `CC1(C)[C@@H]2CC[C@@]1(c1nc(Cc3ccc(F)cc3)no1)C(=O)C2` : IC50 beneath 20 µM, strictly?
Marked response: F

Exam item: Record `CC1(C)[C@@H]2CC[C@@]1(c1nc(-c3ccccn3)no1)C(=O)C2` : is its IC50 strictly below 20 µM?
Marked response: F

====

assay_summary: Selectivity index, ratio of CC50 for cytotoxicity against MDCK cells infected with Influenza A virus A/Anhui/1/2013 (H7N9) to IC50 for antiviral activity against Influenza A virus A/Anhui/1/2013 (H7N9) infected in MDCK cells
Type: toxicity, cell-based
test_conditions: dog; read-out: Ratio CC50/IC50
Quick rule for you: selectivity ratio under 2 gets yes (1), anything else gets no (0).

Exam item: Lab note: confirm whether the reported selectivity ratio for this compound is below 2, equality not counting. compound: `CC1(C)[C@@H]2CC[C@@]1(C(=O)O/N=C(\N)c1ccc(Br)cc1)C(=O)C2`
Marked response: no (0)

Exam item: Please indicate whether the reported selectivity ratio of `CC1(C)[C@@H]2CC[C@@]1(c1nc(Cc3ccc(Br)cc3)no1)C(=O)C2` is strictly below 2.
Marked response: no (0)

Exam item: Given `CC1(C)[C@@H]2CC[C@@]1(c1nc(Cc3cccc(F)c3)no1)C(=O)C2` , is recorded selectivity ratio strictly lower than 2?
Marked response: no (0)

Exam item: selectivity ratio strictly < 2 for this compound? CCC(CC)O[C@@H]1C=C(C(=O)O)C[C@H](N)[C@H]1NC(C)=O [OSELTAMIVIR CARBOXYLATE]
Marked response: no (0)

Exam item: Could you please tell me whether selectivity ratio recorded for `CC1(C)[C@@H]2CC[C@@]1(C(=O)O/N=C(\N)c1ccc(F)cc1)C(=O)C2` is less than 2?
Marked response: yes (1)

Exam item: Consider the compound `CC1(C)[C@@H]2CC[C@@]1(C(=O)O/N=C(\N)c1cccnc1)C(=O)C2` . Is its selectivity ratio strictly less than 2?
Marked response: no (0)

Exam item: Determine whether this compound shows selectivity ratio lower than 2 (ties excluded): `CC1(C)[C@@H]2CC[C@@]1(c1nc(-c3cccnc3)no1)C(=O)C2`
Marked response: yes (1)

Exam item: Regarding `CC1(C)[C@@H]2CC[C@@]1(C(=O)O/N=C(\N)c1cccc(F)c1)C(=O)C2` , kindly confirm whether its selectivity ratio is beneath 2.
Marked response: no (0)

====

Tested on: Influenza A virus
assay_summary: Antiviral activity against Influenza A virus A/Puerto Rico/8/34 (H1N1) infected in MDCK cells assessed as inhibition of viral replication
Type: functional, organism-based
For each record, write down the corresponding pIC50.
Reminder that pIC50 means the negative base-10 logarithm of the concentration expressed in mol/L.

Exam item: Let me know recorded pIC50 for `CC1(C)[C@@H]2CC[C@@]1(c1nc(-c3ccc(C(F)(F)F)cc3)no1)C(=O)C2` , thanks.
Marked response: 5.15

Exam item: Tell me pIC50 reported for `CN(C)Cc1noc([C@]23CC[C@H](CC2=O)C3(C)C)n1`
Marked response: 3.04

Exam item: Item `CC1(C)[C@@H]2CC[C@@]1(C(=O)O/N=C(\N)Cc1ccccc1F)C(=O)C2` : provide pIC50
Marked response: 3.91

====

System: Influenza A virus
assay_summary: Antiviral activity against Influenza A virus A/Puerto Rico/8/34 (H1N1) infected in MDCK cells assessed as inhibition of viral replication
Type: functional, organism-based
pIC50: −log10 of the molar value.
Label NOT MET if pIC50 falls below 4; label MET in every other case.

Exam item: Please tell me: is the compound `CN(C)C/C(N)=N/OC(=O)[C@]12CC[C@H](CC1=O)C2(C)C` at or over 4 in terms of pIC50?
Marked response: MET

Exam item: # check: pIC50 of `CC1(C)[C@@H]2CC[C@@]1(c1nc(-c3ccc(F)cc3)no1)C(=O)C2` is greater than or equal to 4
Marked response: MET

Exam item: Given `CC(C)(C)/C(N)=N/OC(=O)[C@]12CC[C@H](CC1=O)C2(C)C` , state whether its pIC50 is at least 4.
Marked response: NOT MET

Exam item: Check if pIC50 >= 4 (inclusive). Item: `CC1(C)[C@@H]2CC[C@@]1(C(=O)O/N=C(\N)c1ccccc1)C(=O)C2`
Marked response: MET

Exam item: hey, is pIC50 for this one >= 4? `CC1(C)[C@@H]2CC[C@@]1(C(=O)O/N=C(\N)Cc1cccc(F)c1)C(=O)C2`
Marked response: NOT MET

Exam item: Form field: pIC50 at least 4? Entry: `CC1(C)[C@@H]2CC[C@@]1(C(=O)O/N=C(\N)c1cccc(F)c1)C(=O)C2`
Marked response: MET

Exam item: Does `CC1(C)[C@@H]2CC[C@@]1(c1nc(Cc3cccc(F)c3)no1)C(=O)C2` have a reported pIC50 of at least 4?
Marked response: MET

Exam item: I'd appreciate it if you could say whether `CC1(C)[C@@H]2CC[C@@]1(C(=O)O/N=C(\N)c1ccc(Cl)cc1)C(=O)C2` has pIC50 at least equal to 4.
Marked response: MET

Exam item: Quick check: does `CC1(C)[C@@H]2CC[C@@]1(C(=O)O/N=C(\N)c1ccccc1F)C(=O)C2` have pIC50 greater than or equal to 4?
Marked response: MET

====

Tested on: Influenza A virus
assay_summary: Antiviral activity against Influenza A virus A/Puerto Rico/8/34 (H1N1) infected in MDCK cells assessed as inhibition of viral replication
Format: functional, organism-based
measured_attribute: pIC50
Expect pIC50 as a plain number equal to -log10 of the molar concentration.

Exam item: Look up pIC50 of `CC1(C)[C@@H]2CC[C@@]1(C(=O)O/N=C(\N)c1cccnc1)C(=O)C2` and report it.
Marked response: 3.98

Exam item: For the compound `CC1(C)[C@@H]2CC[C@@]1(C(=O)O/N=C(\N)c1ccncc1)C(=O)C2` , report pIC50.
Marked response: 4.11

Exam item: Give a short answer stating reported pIC50 for `CC1(C)[C@@H]2CC[C@@]1(C(=O)O/N=C(\N)Cc1ccc(Br)cc1)C(=O)C2` .
Marked response: 4.92

Exam item: Answer with reported pIC50 of `CC/C(N)=N/OC(=O)[C@]12CC[C@H](CC1=O)C2(C)C`
Marked response: 3.79

Exam item: Complete the entry with pIC50 for `C/C(N)=N/OC(=O)[C@]12CC[C@H](CC1=O)C2(C)C`
Marked response: 3.76

Exam item: Find the measured pIC50 of `CC1(C)[C@@H]2CC[C@@]1(C(=O)O/N=C(\N)c1ccc(F)cc1)C(=O)C2` and report it.
Marked response: 5.10

Exam item: Give me measured pIC50, please, for this compound: `CC1(C)[C@@H]2CC[C@@]1(C(=O)O/N=C(\N)c1ccc(Br)cc1)C(=O)C2`
Marked response: 4.89

Exam item: Determine from records and report pIC50 for `CC1(C)[C@@H]2CC[C@@]1(C(=O)O/N=C(\N)c1ccc(C(F)(F)F)cc1)C(=O)C2`
Marked response: 3.26

Exam item: In one line, give reported pIC50 of the entry `CC1(C)[C@@H]2CC[C@@]1(c1nc(-c3cccc(F)c3)no1)C(=O)C2` .
Marked response: 5.22
